Assignment: determine reported IC50 for the given compounds.
- Target entity: mu opioid receptor (MOR) (Homo sapiens, UniProt P35372)
- Sequence (P35372 whole entry): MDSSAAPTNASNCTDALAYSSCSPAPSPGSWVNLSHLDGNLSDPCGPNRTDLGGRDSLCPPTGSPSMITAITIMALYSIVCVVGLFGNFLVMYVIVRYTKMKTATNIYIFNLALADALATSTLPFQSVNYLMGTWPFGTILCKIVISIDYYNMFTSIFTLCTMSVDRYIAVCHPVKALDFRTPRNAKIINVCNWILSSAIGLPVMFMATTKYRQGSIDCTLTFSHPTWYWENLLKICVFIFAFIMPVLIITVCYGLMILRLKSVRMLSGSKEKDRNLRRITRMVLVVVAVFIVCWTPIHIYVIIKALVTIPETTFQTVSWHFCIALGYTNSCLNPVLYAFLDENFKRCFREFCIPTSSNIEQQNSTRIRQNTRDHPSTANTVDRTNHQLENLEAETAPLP
- Measurement notes: OPRMu1 Discover X β-arrestin Assay, antagonist mode (U2OS cells, DAMGO EC80 challenge)

Task: // query IC50 value for entry Cc1cc(Cl)c2nc(N3CCN(CC4CCOCC4)C[C@H]3C)c(-c3nc(C)no3)c(C)c2c1
Result: 0.1 to 1 µM

Task: Requested field: IC50. Item: CCc1cc(-c2ccnn2C)c2nc(N3CCC(N[C@H]4CCOC4)CC3)c(-c3ccn(C)n3)c(C)c2c1
Result: > 1 µM

Task: Need IC50 of CCc1cc(F)c2nc(N3CC[C@H]4[C@H](CCN4[C@@H]4CCCOC4)C3)c(-c3ccn(C)n3)c(C)c2c1 , thanks.
Result: > 1 µM

Task: Given CCc1cc(F)c2nc(N3CCN(C(=O)CN4CCCC4)C[C@H]3C)c(-c3nc(C)no3)c(C)c2c1 , state its recorded IC50.
Result: 0.1 to 1 µM

---

- Target entity: kappa opioid receptor (KOR) (Homo sapiens, UniProt P41145)
- Sequence (P41145 whole entry): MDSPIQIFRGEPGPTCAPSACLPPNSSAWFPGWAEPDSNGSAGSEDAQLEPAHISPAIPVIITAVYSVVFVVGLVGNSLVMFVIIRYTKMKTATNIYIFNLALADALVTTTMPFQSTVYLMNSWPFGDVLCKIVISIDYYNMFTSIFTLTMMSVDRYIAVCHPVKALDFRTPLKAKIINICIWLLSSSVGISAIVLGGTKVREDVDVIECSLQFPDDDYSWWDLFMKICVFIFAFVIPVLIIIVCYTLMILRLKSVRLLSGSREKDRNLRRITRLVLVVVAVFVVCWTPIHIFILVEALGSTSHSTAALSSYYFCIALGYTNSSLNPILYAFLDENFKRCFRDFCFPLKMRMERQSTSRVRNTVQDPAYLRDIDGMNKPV
- Measurement notes: OPRKappa 1 Tango B-Arrestin Assay, antagonist mode (Tango OPRK1-bla U2OS cells, U50488 EC80 challenge)
- Run parameters: antagonist mode, Tango OPRK1-bla U2OS cells, 6 nM U50488 challenge
pIC50: −log10 of the molar value.
Observable: pIC50

Task: pIC50 lookup needed for CCc1cc(F)c2nc(N3CC[C@H]4[C@H](CCN4C[C@@H]4CCCOC4)C3)c(-c3ccn(C)n3)c(C)c2c1 , thanks.
Result: 7.00 to 8.00

Task: Consider the compound shown here: CCc1cc(F)c2nc(N3CCN(C(=O)[C@@H]4C[C@@H](O)CN4C)C[C@H]3C)c(-c3ccn(C)n3)c(C)c2c1 What is its recorded pIC50?
Result: ≤ 7.00

Task: Which pIC50 is listed for CCc1cc(F)c2nc(N3CCN(C(=O)[C@H](C(C)C)N4CCCC4)C[C@H]3C)c(-c3nc(C)no3)c(C)c2c1 ?
Result: 8.00 to 9.00

---

- Target entity: UniProtKB P41145
- Measurement notes: OPRKappa 1 Tango B-Arrestin Assay, antagonist mode (Tango OPRK1-bla U2OS cells, U50488 EC80 challenge)
- Run parameters: antagonist mode, Tango OPRK1-bla U2OS cells, 6 nM U50488 challenge
pIC50: −log10 of the molar value.
Observable: pIC50

Task: Lab note: need pIC50 with UniProtKB P41145 for entry CCc1cc(F)c2nc(N3CCN(CC4CCOCC4)C[C@H]3CC)c(-c3nc(C)no3)c(C)c2c1 , please look it up.
Result: 7.00 to 8.00

Task: Item: CCc1cc(C#N)c2nc(N3CCC(NC4CC(F)(F)C4)CC3)c(-c3ccn(C)n3)c(C)c2c1 Test system: UniProtKB P41145 Read-out: pIC50 Value: ?
Result: 8.00 to 9.00

Task: What pIC50 appears in the records for this compound with UniProtKB P41145? CCc1cc(F)c2nc(N3CCN(C(=O)CN4CC[C@@H](O)C4)C[C@H]3C)c(-c3nc(C)no3)c(C)c2c1
Result: 8.00 to 9.00

Task: So what pIC50 did CCc1cc(C#N)c2nc(N3CCC(N4CCOC[C@@H]4C)CC3)c(-c3ccn(C)n3)c(C)c2c1 get with UniProtKB P41145?
Result: 7.00 to 8.00

Task: GET /values?readout=pIC50&system=UniProtKB P41145&item= CCc1cc(F)c2nc(N3CCN(C(=O)[C@H]4COCCN4C)C[C@H]3C)c(-c3nc(C)no3)c(C)c2c1
Result: 7.00 to 8.00

Task: Missing value: pIC50, UniProtKB P41145, entry CCc1cc(F)c2nc(N3CCN(C(=O)[C@H]4CCCCN4C)C[C@H]3C)c(-c3nc(C)no3)c(C)c2c1 . Fill in?
Result: 8.00 to 9.00

Task: # get_value(readout= pIC50, system= UniProtKB P41145) for CCc1cc(F)c2nc(N3CCN(C(=O)[C@@H](C)N4CC[C@@H](F)C4)C[C@H]3C)c(-c3nc(C)no3)c(C)c2c1
Result: 8.00 to 9.00

Task: Give pIC50 (UniProtKB P41145) of the following compound: CCc1cc(-c2ccn(C)n2)c2nc(N3CCC(NC4CC(F)(F)C4)CC3)c(-c3nc(C)no3)c(C)c2c1
Result: 8.00 to 9.00

Task: API: value(readout=pIC50, system=UniProtKB P41145) for record CCc1cc(F)c2nc(N3CCN(/C(=N\C#N)NC4CCOCC4)C[C@H]3C)c(-c3nc(C)no3)c(C)c2c1
Result: 7.00 to 8.00

Task: Missing value: pIC50, UniProtKB P41145, entry CCc1cc(-c2ccnn2C)c2nc(N3CCNC4CC43)c(-c3ccn(C)n3)c(C)c2c1 (stereo not drawn) . Fill in?
Result: ≤ 7.00

Task: // lookup pIC50 | system=UniProtKB P41145 | key= Cc1cc(Cl)c2nc(N3CCN(CC4CCOCC4)C[C@H]3C)c(-c3nc(C)no3)c(C)c2c1
Result: 8.00 to 9.00

Task: Item CCc1cc(F)c2nc(N3CCN(CC4(O)CCOCC4)C[C@H]3C)c(-c3nc(C)no3)c(C)c2c1 with UniProtKB P41145 - pIC50?
Result: 8.00 to 9.00

Task: Recall the recorded pIC50 for CCc1cc(F)c2nc(N3CCN(CC4CCOCC4)C4CC43)c(-c3nc(C)no3)c(C)c2c1 (stereo not drawn) with UniProtKB P41145 and state it.
Result: ≤ 7.00

Task: Could you share what pIC50 was measured for CCc1cc(F)c2nc(N3CCN(C(=O)[C@@H]4CCCN4C)C[C@H]3C)c(-c3nc(C)no3)c(C)c2c1 , tested on UniProtKB P41145?
Result: 7.00 to 8.00

Task: Quick check: pIC50 on UniProtKB P41145, item CCc1cc(-c2ccnn2C)c2nc(N3CCC(N4CCOC[C@H]4C)CC3)c(-c3ccn(C)n3)c(C)c2c1 ?
Result: < 6.00

---

Provide the recorded IC50 for the entries that follow.
- Target entity: kappa opioid receptor (KOR) (Homo sapiens, UniProt P41145)
- Measurement notes: OPRKappa 1 Tango B-Arrestin Assay, antagonist mode (Tango OPRK1-bla U2OS cells, U50488 EC80 challenge)
- Run parameters: antagonist mode, Tango OPRK1-bla U2OS cells, 6 nM U50488 challenge

Task: I'm curious: which IC50 was measured for CCc1cc(F)c2nc(N3CCN(C(=O)[C@H](CO)N(C)C)C[C@H]3C)c(-c3ccn(C)n3)c(C)c2c1 tested on kappa opioid receptor (KOR) (Homo sapiens, UniProt P41145)?
Result: 0.01 to 0.1 µM

Task: Provide the documented IC50 with kappa opioid receptor (KOR) (Homo sapiens, UniProt P41145) as the system for CCc1cc(F)c2nc(N3CCN(/C(=N/C#N)NC4CC(F)(F)C4)C[C@H]3C)c(-c3nc(C)no3)c(C)c2c1
Result: < 0.001 µM

Task: Hi! What's the reported IC50 for CCc1cc(-c2ccnn2C)c2nc(N3CCC(N[C@H]4COC[C@H]4F)CC3)c(-c3ccn(C)n3)c(C)c2c1 on kappa opioid receptor (KOR) (Homo sapiens, UniProt P41145)?
Result: 0.001 to 0.01 µM

Task: Request - read-out IC50 | tested on kappa opioid receptor (KOR) (Homo sapiens, UniProt P41145) | compound CCc1cc(F)c2nc(N3CCN(CC4CCOCC4)C[C@H]3C)c(-c3cc(C)no3)c(C)c2c1
Result: 0.01 to 0.1 µM

Task: Param readout = IC50; param system = kappa opioid receptor (KOR) (Homo sapiens, UniProt P41145); param query = CCc1cc(-c2ccnn2C)c2nc(N3CCN(CC4CC(F)(F)C4)C[C@H]3C)c(-c3ccn(C)n3)c(C)c2c1 ; response: value
Result: ≥ 0.1 µM

Task: I'm curious: which IC50 was measured for CCc1cc(F)c2nc(N3CC[C@@H](N[C@@H]4CCOC4)C[C@H]3C)c(-c3cc(C)no3)c(C)c2c1 tested on kappa opioid receptor (KOR) (Homo sapiens, UniProt P41145)?
Result: < 0.001 µM

Task: Query IC50 on kappa opioid receptor (KOR) (Homo sapiens, UniProt P41145) for CCc1cc(F)c2nc(N3CCN(C(=O)CN(C)C)C[C@H]3C)c(-c3ccn(C)n3)c(C)c2c1
Result: 0.01 to 0.1 µM

---

- Target entity: kappa opioid receptor (KOR) (Homo sapiens, UniProt P41145)
- Measurement notes: OPRKappa 1 Tango B-Arrestin Assay, antagonist mode (Tango OPRK1-bla U2OS cells, U50488 EC80 challenge)
- Run parameters: antagonist mode, Tango OPRK1-bla U2OS cells, 6 nM U50488 challenge
Answer each item with its documented IC50.

Task: Consider the compound shown here: CCc1cc(F)c2nc(N3CCC(N[C@@H]4CCOC[C@H]4O)CC3)c(-c3cc(C)n(C)n3)c(C)c2c1 What is its recorded IC50?
Result: 1 to 10 nM

Task: Which IC50 value belongs to CCc1cc(F)c2nc(N3CCC(N[C@@H]4COC[C@@H]4F)CC3)c(-c3ccn(C)n3)c(C)c2c1 ?
Result: 1 to 10 nM

Task: Which IC50 is reported for this compound? CCc1cc(F)c2nc(N3CCN([C@H]4CCOC4)C[C@H]3C)c(-c3nc(C)no3)c(C)c2c1
Result: 1 to 10 nM

Task: Looking for the measured IC50 of CCc1cc(F)c2nc(N3CC[C@H](N[C@@H]4CCOC4)C[C@H]3C)c(-c3cc(C)no3)c(C)c2c1 , can you help?
Result: < 1 nM

Task: Reported IC50 for CCc1cc(F)c2nc(N3CCC(N[C@H]4COC[C@H]4F)CC3)c(-c3ccn(C)n3)c(C)c2c1 : what is it?
Result: 10 to 100 nM

Task: What value of measured IC50 is listed for CCc1cc(-c2ccnn2C)c2nc(N3CCN(C[C@@H]4CCOC4)C[C@H]3C)c(-c3ccn(C)n3)c(C)c2c1 ?
Result: 1 to 10 nM

Task: What measured IC50 goes with CCc1cc(F)c2nc(N3CCN(C(=O)[C@@H](C)N(CC)CC)C[C@H]3C)c(-c3cc(C)no3)c(C)c2c1 ?
Result: 1 to 10 nM

Task: Fill in the blank: the reported IC50 of CCc1cc(-c2cc[nH]n2)c2nc(N3CCNC[C@H]3C)c(-c3ccn(C)n3)c(C)c2c1 is ____.
Result: ≥ 100 nM

Task: Would you kindly share the measured IC50 for CCc1cc(-c2ccnn2C)c2nc(N3CCC(N[C@H]4CCOC[C@H]4F)CC3)c(-c3ccn(C)n3)c(C)c2c1 ?
Result: 1 to 10 nM

Task: What value of IC50 has been recorded for this entry: CCc1cc(F)c2nc(N3CC[C@@H](NC[C@@H]4CCOC4)[C@@H](F)C3)c(-c3ccn(C)n3)c(C)c2c1
Result: < 1 nM

Task: Using the record for CCc1cc(C#N)c2nc(N3CCC(NCC4(F)CCOCC4)CC3)c(-c3ccn(C)n3)c(C)c2c1 , report its IC50.
Result: 1 to 10 nM

Task: Quick check: IC50 of CCc1cc(-c2ccnn2C)c2nc(N3CCC(NCC4(F)CCC4)CC3)c(-c3ccn(C)n3)c(C)c2c1 ?
Result: < 1 nM

Task: Name the reported IC50 value associated with the compound CCc1cc(F)c2nc(N3CC[C@@H](N[C@@H]4CCCOC4)C[C@H]3C)c(-c3cc(C)no3)c(C)c2c1
Result: < 1 nM

Task: Value lookup for IC50; key = CCc1cc(F)c2nc(N3CC[C@H](N[C@@H]4CCOC4)[C@@H](F)C3)c(-c3ccn(C)n3)c(C)c2c1
Result: 1 to 10 nM

Task: So what does the record say about IC50 for CCc1cc(F)c2nc(N3CCC(N[C@@H]4CCCC(F)(F)C4)CC3)c(-c3ccn(C)n3)c(C)c2c1 ?
Result: 1 to 10 nM
